System: S.aureus (Sa)
Assay: Broth microdilution MIC against S.aureus (Sa)
Format: cell-based
Conditions: Staphylococcus aureus, CAMHB supplemented with sodium bicarbonate 6.25 mM; read-out: Sa + bicarb 6.25 (MIC)
Method: A certified BSL-2 laboratory was used for testing. Compounds were evaluated using the broth microdilution minimum inhibitory concentration (MIC) and minimum bactericidal concentration (MBC) assays defined by Clinical and Laboratory Standards Institute (CLSI) in the M26-A guideline against S.aureus (Sa), E.coli (Ec), K.pneumoniae (Kp), A.baumannii (Ab), E.faecalis (Ef) and P.aeruginosa (Pa). […]
Structures can show the parent of a compound that is named as a salt.
MIC values by entry

compound	MIC
CC(C)(N)C(=O)N1CCN(C(=O)Nc2ccn(-c3ccc4c(c3)CCC(N[C@H]3CC[C@H](N)C3)C4)c(=O)n2)CC1 (single isomer, unassigned) [Compound 27, Hydrochloride Salt]	< 8 µg/mL
CC(C)(N)C(=O)N1CCN(C(=O)Nc2ccn(-c3ccc4c(c3)CCC(N[C@H]3C[C@H](N)C3)C4)c(=O)n2)CC1 (stereo partly shown) [Compound 29, Hydrochloride Salt]	< 8 µg/mL
CC(C)(N)C(=O)N1CCN(C(=O)Nc2ccn(-c3ccc4c(c3)CCC(N[C@H]3C[C@@H](N)C3)C4)c(=O)n2)CC1 (stereo partly shown) [Compound 30, Hydrochloride Salt]	< 8 µg/mL
CC(C)(N)C(=O)N1CCN(C(=O)Nc2ccn(-c3ccc4c(c3)CC(N[C@H]3CC[C@H](N)CC3)C4)c(=O)n2)CC1 (stereo partly shown) [Compound 38, Hydrochloride Salt]	8 to 32 µg/mL
CC(C)(N)C(=O)N1CCN(C(=O)Nc2ccn(-c3ccc4c(c3)CCC(N3CC(CN)C3)C4)c(=O)n2)CC1 (stereo not shown) [Compound 40, Hydrochloride Salt]	< 8 µg/mL
CC(C)(N)C(=O)N1CCN(C(=O)Nc2ccn(-c3ccc4c(c3)CC(NC[C@H]3C[C@H](N)C3)C4)c(=O)n2)CC1 (stereo partly shown) [Compound 37, Hydrochloride Salt]	8 to 32 µg/mL
CC(C)(N)C(=O)N1CCN(C(=O)Nc2ccn(-c3ccc4c(c3)CCC(NC[C@H]3C[C@H](N)C3)C4)c(=O)n2)CC1 (stereo partly shown) [Compound 31, Hydrochloride Salt]	< 8 µg/mL
